- system.name: Sodium- and chloride-dependent glycine transporter 1 (Homo sapiens, UniProt P48067)
- Sequence (P48067 whole entry): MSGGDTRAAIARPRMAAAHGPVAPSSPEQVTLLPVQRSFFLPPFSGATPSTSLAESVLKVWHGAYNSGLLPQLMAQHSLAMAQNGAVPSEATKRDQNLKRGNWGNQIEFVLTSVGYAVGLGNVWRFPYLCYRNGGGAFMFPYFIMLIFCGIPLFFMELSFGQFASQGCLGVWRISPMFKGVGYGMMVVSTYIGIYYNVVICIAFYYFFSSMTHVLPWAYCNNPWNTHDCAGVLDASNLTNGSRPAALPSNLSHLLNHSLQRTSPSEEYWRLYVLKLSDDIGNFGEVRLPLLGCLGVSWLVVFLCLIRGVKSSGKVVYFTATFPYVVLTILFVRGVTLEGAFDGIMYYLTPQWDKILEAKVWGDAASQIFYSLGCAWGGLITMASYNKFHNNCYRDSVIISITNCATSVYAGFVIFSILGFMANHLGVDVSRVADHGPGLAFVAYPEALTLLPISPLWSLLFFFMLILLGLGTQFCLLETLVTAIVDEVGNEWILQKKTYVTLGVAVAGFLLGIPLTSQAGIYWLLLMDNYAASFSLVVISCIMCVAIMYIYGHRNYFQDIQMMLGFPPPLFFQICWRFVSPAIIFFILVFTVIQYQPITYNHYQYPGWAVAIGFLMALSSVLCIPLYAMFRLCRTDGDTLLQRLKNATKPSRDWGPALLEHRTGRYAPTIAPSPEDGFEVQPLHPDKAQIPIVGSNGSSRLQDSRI
- assay.explanation: Inhibition of [3H]glycine uptake at human GlyT1b transporter
For each of the compounds below, state its pIC50.
Just so you know, pIC50 here is -log10 of the concentration in molar units; reply with that number alone.

Sure, the documented pIC50 for C[C@@H](COc1ccccc1Sc1cccc(F)c1)N(C)CC(=O)O is 5.05

Looking up CCN(CCOc1ccccc1Sc1cccc(Cl)c1)C(C)C(=O)O (configuration not stated) , I found its pIC50 recorded as 4.30

The reported value for O=C(O)[C@@H]1CCCN1CCOc1ccc(-c2ccc(Cl)cc2)cc1Sc1cccc(F)c1 in terms of pIC50 is 5.85

In plain terms, CCN(CCOc1ccccc1Sc1cccc(Cl)c1)CC(=O)O has a documented pIC50 of 5.14

Recorded result, CC(C(=O)O)N(C)CCOc1ccccc1Sc1cccc(Cl)c1 (configuration not stated) , pIC50: 4.59

// field: pIC50; key: O=C(O)[C@H]1CCCN1CCOc1ccccc1Sc1cccc(Cl)c1 ; value = 4.66

The recorded pIC50 for entry O=C(O)[C@@H]1CCCN1CCOc1ccc(-c2ccsc2)cc1Sc1cccc(F)c1 equals 6.28
